- TARGET: T1, human TREM2 (triggering receptor expressed on myeloid cells 2) (human) (UniProt Q9NZC2)
- T1 sequence (looked up): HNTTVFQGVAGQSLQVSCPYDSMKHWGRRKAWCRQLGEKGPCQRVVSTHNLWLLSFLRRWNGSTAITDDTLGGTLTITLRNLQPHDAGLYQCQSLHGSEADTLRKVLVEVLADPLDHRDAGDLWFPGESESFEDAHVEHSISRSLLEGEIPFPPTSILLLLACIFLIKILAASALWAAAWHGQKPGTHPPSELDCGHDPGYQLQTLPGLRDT
- METHOD: 2nd screen, 100 nM Ab
Recorded Binding Signal (fold over 6E7 parental antibody) by entry
# unit: fold | format: bare number

Example results:
>>> reported_value("6E7 antibody affinity modulation variant V90 (antibody, V domains shown) VH: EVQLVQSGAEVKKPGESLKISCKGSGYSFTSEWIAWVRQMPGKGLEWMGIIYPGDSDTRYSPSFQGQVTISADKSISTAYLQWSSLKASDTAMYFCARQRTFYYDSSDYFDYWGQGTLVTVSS VL: DIQMTQSPSSVSASVGDRVTITCRASQGISRWLAWYQQKPGKAPKLLIYAASSLQNGVPSRFSGSGSGTDFTLTISSLQPEDFATYFCQQADSFPRTFGQGTKLEIK")
0.36
>>> reported_value("6E7 antibody affinity modulation variant V47 (antibody, V domains shown) VH: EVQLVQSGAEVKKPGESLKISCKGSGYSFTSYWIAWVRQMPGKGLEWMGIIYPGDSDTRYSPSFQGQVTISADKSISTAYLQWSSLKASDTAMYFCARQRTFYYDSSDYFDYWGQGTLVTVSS VL: DIQMTQSPSSVSASVGDRVTITCRASQGISSWLAWYQQKPGKAPKLLIYAASSLQNGVPSRFSGSGSGTDFTLTISSLQPEDFATYFCQQADSFPMTFGQGTKLEIK")
0.47
>>> reported_value("6E7 antibody affinity modulation variant V92 (antibody, V domains shown) VH: EVQLVQSGAEVKKPGESLKISCKGSGYSFTSYWIAWVRQMPGKGLEWMGIIYPGDSDTRYSPSFQGQVTISADKSISTAYLQWSSLKASDTAMYFCARQRTFHYDSSDYFDYWGQGTLVTVSS VL: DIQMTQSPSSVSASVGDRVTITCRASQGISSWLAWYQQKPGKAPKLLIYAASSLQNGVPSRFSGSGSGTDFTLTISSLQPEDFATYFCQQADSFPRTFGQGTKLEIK")
0.65
>>> reported_value("6E7 antibody affinity modulation variant V54 (antibody, V domains shown) VH: EVQLVQSGAEVKKPGESLKISCKGSGYSFTSQWIAWVRQMPGKGLEWMGIIYPGDSDTRYSPSFQGQVTISADKSISTAYLQWSSLKASDTAMYFCARQRTFYYDSSDYFDYWGQGTLVTVSS VL: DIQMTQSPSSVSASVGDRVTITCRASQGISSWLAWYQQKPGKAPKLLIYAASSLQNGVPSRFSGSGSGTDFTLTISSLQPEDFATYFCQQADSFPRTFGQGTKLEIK")
0.54
>>> reported_value("6E7 antibody affinity modulation variant V9 (antibody, V domains shown) VH: EVQLVQSGAEVKKPGESLKISCKGSGYSFTSYWIAWVRQMPGKGLEWMGIIYPGDSDTRYSPSFQGQVTISADKSISTAYLQWSSLKASDTAMYFCARQRGFYYDSSDYFDYWGQGTLVTVSS VL: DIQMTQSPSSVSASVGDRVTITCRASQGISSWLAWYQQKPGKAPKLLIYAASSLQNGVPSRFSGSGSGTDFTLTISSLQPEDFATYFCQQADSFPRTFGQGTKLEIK")
0.54

Let's switch to this binder now.
So, 6E7 antibody affinity modulation variant V82 (antibody, V domains shown) VH: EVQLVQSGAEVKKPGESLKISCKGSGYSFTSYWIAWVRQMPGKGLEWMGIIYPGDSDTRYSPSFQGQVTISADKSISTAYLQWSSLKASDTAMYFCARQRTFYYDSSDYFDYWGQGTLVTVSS VL: DIQMTQSPSSVSASVGDRVTITCRASQGISSWLAWYQQKPGKAPKLLIYAGSSLQNGVPSRFSGSGSGTDFTLTISSLQPEDFATYFCQQADSFPRTFGQGTKLEIK ? Its Binding Signal (fold over 6E7 parental antibody) was 0.79

Taken from patent US20250019437A1.
